Target: c-Src SH2;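 further: peptide library displayed on the E. coli surface as eCPX fusions, selected cells deep-sequenced, score is each peptide's frequency after selection divided by its frequency in the input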
Experiment: SH2 binding enrichment of the phosphorylated peptide, bacterial display (enrichment ratio); higher = better substrate or ligand; peptides without Tyr show the background
parameter_measured: SH2 binding enrichment

* IKGNMYYENSY [EGFR_Y112_R108K] | 4.57
* FTRNFYVWAVL [CYBA_Y88_R90W_YF] | 0.633
* GCKNRYDEDKP [THAP1_Y14_K16E] | 0.692
* TSYSGYRCHRH [NKAPL_Y94_Y96C] | 0.732
* QNKEDYAGLKE [GSTO1_Y139] | 0.803
* NELTFYCFKKD [CD59_Y87_C89Y_YF] | 0.404
* AALSAYAAQRP [PTPRN2_Y249] | 0.457
* YGMSTYITRED [FNDC3B_Y180] | 0.464
* KDFTKYVAFIE [KDM4B_Y31_N29T_YF] | 0.674
* HPYNSYTYPRL [PAK5_Y316_S312P] | 7.32
* ETPSEYLEIVR [TMEM130_Y412] | 0.443
* DFFDLYGGKKF [PTPN11_Y66_E69K_YF] | 0.428
* FPLELYERVRM [PRKCG_Y312_YF] | 0.485
* RGGWVYVLHPT [TRMT61A_Y67] | 0.573
* ERNAHYRTPKI [PTK2B_Y699_R698H] | 0.521
* IKSSIYDNRNE [ARAP2_Y380_K384N] | 0.608
* YFRDGYMPRQY [GSS_Y270] | 0.627
* SYNNKYGMVAQ [APOB_Y276_K273N] | 0.49
* SSQTIYQRVEG [TFR2_Y23_V22I] | 1.39
* AGARMYGVLPW [PLP1_Y207_D203G] | 0.513
* PVFQVYPLLNC [GATA1_Y78] | 0.49
* DFDHSYFFIAT [ESD_Y262_G257D_YF] | 0.455
* TNLVPYPCIHF [TUBA1A_Y262_R264C] | 0.591
* SSDKVCAHQMV [MLH1_Y379_Y379C] | 0.714
* DVQNEYDSNHC [ZFYVE16_Y36_A35E] | 0.541
* HSRTRYERNIE [F2_Y434] | 0.752
* FLGKGYSDGGC [MC4R_Y35_S30F] | 0.509
* RLQEGYDHSYY [ESD_Y258] | 1.4
* VDHFGYNKDDK [APOB_Y740_T741N] | 0.465
* LFLALYTGLVH [PIGB_Y402] | 1.51
* TLQWMYGCDVG [HLA-B_Y123_S121W] | 0.446
* EQKKFYNATKK [SCN5A_Y1495_M1498T_YF] | 0.606
* PIPAAYNRYDQ [CDC73_Y290] | 0.5
* STEAIYRRFSK [SH3PXD2B_Y42_YF] | 0.472
* VPHECYAKVFD [ALB_Y394_D389V] | 2.33
* LRVKMYNFLRS [ADGRG7_Y760] | 1.1
* GKTQQYDCKWY [BCR_Y751] | 0.758
* SFGMVYEGNAR [INSR_Y1038] | 0.536
* EAEPFYRSLRD [NPHS1_Y1139_YF] | 0.521
* PAGSGYPAFLG [ATP6V1A_Y374_D371G_YF] | 0.538
* SEDSEYYKAFE [CASQ2_Y178] | 0.558
* KKYPDYIQIAR [SGMS2_Y59_M64R] | 0.858
* MNKNAYHNVTT [ST3GAL6_Y306_A311T] | 2.21
* EEALHYLTRVE [SET_Y119] | 0.532
* AIYWRYSKFFD [SH3PXD2B_Y45_R43W] | 0.466
* DSASAYADEVK [ETNPPL_Y189] | 0.593
* TISPFYRQSLF [CRYAA_Y48_YF] | 0.612
* LNERHYGALIG [BPGM_Y92] | 0.613
* PGIRMYRVQFN [LRFN1_Y454_Q455R_YF] | 0.469
* SVESPYGSVTF [NDRG2_Y47_T45S] | 0.376
* FGSSSSGGAGG [RPA2_Y14_Y14S_YF] | 0.358
* HQEPVYSVAFS [TBL1X_Y509] | 0.533
* CRWKRYQCSHD [GDPD5_Y30_R32C] | 0.494
* FLAVGYHKLHI [IDS_Y225_P228L] | 1.25
* DKATEYSQFMR [MAX_Y70_I71S_YF] | 0.512
* SLDLSYYTTSS [EMD_Y181_P183T] | 1.58
* KIFPEYLSNWT [AIFM1_Y347_L344F] | 0.628
* QNTGDYCDLYG [PTPN11_Y62_Y63C] | 1.22
